ASSAY SYSTEM: Tyrosine-protein kinase BTK (Mus musculus, UniProt P35991)
Sequence (P35991 whole entry): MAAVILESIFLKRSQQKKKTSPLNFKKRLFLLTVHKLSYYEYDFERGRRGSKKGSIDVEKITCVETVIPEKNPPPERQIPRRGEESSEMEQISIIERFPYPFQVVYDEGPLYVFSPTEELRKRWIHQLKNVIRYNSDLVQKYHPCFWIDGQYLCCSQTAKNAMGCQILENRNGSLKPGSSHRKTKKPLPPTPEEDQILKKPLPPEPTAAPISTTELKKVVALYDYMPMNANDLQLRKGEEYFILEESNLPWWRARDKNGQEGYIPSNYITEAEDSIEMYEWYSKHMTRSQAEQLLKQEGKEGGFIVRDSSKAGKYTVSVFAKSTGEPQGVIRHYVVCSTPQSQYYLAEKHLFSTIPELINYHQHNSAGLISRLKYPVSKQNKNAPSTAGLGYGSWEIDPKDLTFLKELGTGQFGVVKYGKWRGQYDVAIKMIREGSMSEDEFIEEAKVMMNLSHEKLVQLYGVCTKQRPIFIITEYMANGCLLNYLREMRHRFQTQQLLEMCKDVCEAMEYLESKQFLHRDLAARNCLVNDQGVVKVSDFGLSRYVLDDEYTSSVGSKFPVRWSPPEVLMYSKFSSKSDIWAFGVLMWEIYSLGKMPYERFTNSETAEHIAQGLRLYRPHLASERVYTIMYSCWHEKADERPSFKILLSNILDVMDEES
METHOD: Inhibition of C57BL/6J mouse BTK assessed as decrease in anti-mouse IgM antibody stimulated BCR mediated CD69 upregulation preincubated for 30 mins followed by antibody challenge after 18 to 24 hrs by flow cytometry
MEASURED PROPERTY: IC50 (nM)
// units = nM; emit number, no label

As a guide, the following entries are already answered.
structure_as_smiles=CN1CCN(Cc2ccc(-c3cc4c(-c5cccc(N6CCOc7cc(C8CC8)cc(F)c7C6=O)c5CO)ccnc4[nH]3)nc2)CC1 unit_abbrev=nM measured_value=5.5
structure_as_smiles=CN1CCN(Cc2ccc(-c3cc4c(-c5cccc(N6CCOc7cc(C8CC8)ccc7C6=O)c5CO)ccnc4[nH]3)nc2)CC1 unit_abbrev=nM measured_value=14
structure_as_smiles=CC1(O)CN(C(=O)N2CC=C(c3cc4c(-c5cccc(N6CCOc7cc(C8CC8)cc(F)c7C6=O)c5CO)ccnc4[nH]3)CC2)C1 unit_abbrev=nM measured_value=14.7

Prompt: Need IC50 of CN1CC(Oc2ccc(-c3cc4c(-c5cccc(N6CCOc7cc(C8CC8)ccc7C6=O)c5CO)ncnc4[nH]3)cc2)C1 , thanks.
Response: 54

====

ASSAY SYSTEM: Tyrosine-protein kinase JAK1 (Homo sapiens, UniProt P23458)
Sequence (P23458 whole entry): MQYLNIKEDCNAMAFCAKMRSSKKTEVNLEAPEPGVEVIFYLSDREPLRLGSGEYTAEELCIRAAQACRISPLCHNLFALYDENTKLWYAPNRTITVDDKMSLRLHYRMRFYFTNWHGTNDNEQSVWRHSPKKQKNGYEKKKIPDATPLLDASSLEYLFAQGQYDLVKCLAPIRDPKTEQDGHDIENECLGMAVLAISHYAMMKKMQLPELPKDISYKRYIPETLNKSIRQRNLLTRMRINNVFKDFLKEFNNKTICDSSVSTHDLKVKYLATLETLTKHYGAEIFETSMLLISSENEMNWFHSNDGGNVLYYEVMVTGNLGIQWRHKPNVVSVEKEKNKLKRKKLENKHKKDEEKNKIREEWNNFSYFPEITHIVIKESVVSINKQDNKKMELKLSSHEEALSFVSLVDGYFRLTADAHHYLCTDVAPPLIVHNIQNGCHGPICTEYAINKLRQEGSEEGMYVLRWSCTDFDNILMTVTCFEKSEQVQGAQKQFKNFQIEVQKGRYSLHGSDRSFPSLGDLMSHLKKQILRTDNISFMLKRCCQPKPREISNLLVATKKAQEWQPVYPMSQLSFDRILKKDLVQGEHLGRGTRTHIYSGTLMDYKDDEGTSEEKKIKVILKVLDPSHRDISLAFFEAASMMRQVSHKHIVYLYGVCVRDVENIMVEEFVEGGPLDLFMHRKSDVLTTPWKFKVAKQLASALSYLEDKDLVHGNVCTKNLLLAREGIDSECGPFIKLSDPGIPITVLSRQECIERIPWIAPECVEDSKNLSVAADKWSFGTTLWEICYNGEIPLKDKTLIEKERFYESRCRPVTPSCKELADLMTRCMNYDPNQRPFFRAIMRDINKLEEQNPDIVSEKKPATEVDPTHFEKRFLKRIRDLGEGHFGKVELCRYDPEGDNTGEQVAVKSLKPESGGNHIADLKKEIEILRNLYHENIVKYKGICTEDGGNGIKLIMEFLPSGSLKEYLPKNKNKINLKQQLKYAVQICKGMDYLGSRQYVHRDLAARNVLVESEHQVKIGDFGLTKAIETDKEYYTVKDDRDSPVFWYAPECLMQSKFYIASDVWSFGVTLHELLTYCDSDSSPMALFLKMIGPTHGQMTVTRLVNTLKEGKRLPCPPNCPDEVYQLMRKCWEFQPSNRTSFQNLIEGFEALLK
MEASURED PROPERTY: IC50

Prompt: Which measured IC50 value corresponds to O=C1c2c(F)cc(C3CC3)cc2OCCN1c1cccc(-c2ccnc3[nH]c(C4=CCN(C5COC5)CC4)cc23)c1CO ?
Response: > 10 µM

====

ASSAY SYSTEM: Tyrosine-protein kinase BTK (Mus musculus, UniProt P35991)
METHOD: Inhibition of mouse BTK assessed as decrease in anti-CD3epsilon antibody stimulated TCR mediated CD69 upregulation in whole blood preincubated for 1 hr followed by antibody challenge after 4 hrs by flow cytometry
MEASURED PROPERTY: IC50

structure_as_smiles=CCN1CCN(Cc2ccc(-c3cc4c(-c5cccc(N6CCOc7cc(C8CC8)cc(F)c7C6=O)c5CO)ccnc4[nH]3)nc2)CC1 measured_value="5.06 µM"

Prompt: What value of IC50 has been reported for the following compound? O=C1c2c(F)cc(C3CC3)cc2OCCN1c1cccc(-c2ccnc3[nH]c(C4=CCN(C5COC5)CC4)cc23)c1CO
Response: > 30 µM

====

ASSAY SYSTEM: Tyrosine-protein kinase BTK (Homo sapiens)
Sequence (Q06187 whole entry): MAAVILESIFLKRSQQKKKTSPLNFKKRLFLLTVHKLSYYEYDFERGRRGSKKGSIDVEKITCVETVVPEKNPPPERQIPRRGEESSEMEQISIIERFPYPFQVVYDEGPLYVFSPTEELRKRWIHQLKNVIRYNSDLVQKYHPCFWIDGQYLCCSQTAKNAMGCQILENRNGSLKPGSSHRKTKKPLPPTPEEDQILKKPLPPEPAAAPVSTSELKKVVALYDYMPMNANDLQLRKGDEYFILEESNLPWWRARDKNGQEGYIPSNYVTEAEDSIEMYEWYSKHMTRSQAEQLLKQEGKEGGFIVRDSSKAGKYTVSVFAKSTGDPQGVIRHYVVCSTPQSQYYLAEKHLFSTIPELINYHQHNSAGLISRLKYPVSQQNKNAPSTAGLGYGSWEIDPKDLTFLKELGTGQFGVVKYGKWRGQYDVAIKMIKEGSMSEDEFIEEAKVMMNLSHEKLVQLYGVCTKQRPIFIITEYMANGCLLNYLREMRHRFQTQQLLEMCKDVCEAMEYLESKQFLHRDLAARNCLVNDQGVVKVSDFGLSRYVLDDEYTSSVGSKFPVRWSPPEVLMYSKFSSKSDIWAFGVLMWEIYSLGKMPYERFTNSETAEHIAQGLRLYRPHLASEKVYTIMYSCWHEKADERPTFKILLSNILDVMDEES
METHOD: Inhibition of recombinant human full length BTK preincubated for 10 mins followed by Tk-biotin peptide substrate addition after 90 mins by TR-FRET assay
Collected log10(IC50) values appear next to each entry.
// stored as log10 of IC50 expressed in nM

Some solved cases for reference:
structure_as_smiles=CCN1CCN(Cc2ccc(-c3cc4c(-c5cccc(N6CCOc7cc(C8CC8)cc(F)c7C6=O)c5CO)ccnc4[nH]3)nc2)CC1 measured_value=0.41
structure_as_smiles=CC1(O)CN(C(=O)N2CC=C(c3cc4c(-c5cccc(N6CCOc7cc(C8CC8)cc(F)c7C6=O)c5CO)ccnc4[nH]3)CC2)C1 measured_value=0.04
structure_as_smiles=O=C1c2ccc(C3CC3)cc2OCCN1c1cccc(-c2ncnc3[nH]c(-c4ccc(CN5CCOCC5)cc4)cc23)c1CO measured_value=0.92
structure_as_smiles=CN1CC(Oc2ccc(-c3cc4c(-c5cccc(N6CCOc7cc(C8CC8)ccc7C6=O)c5CO)ncnc4[nH]3)cc2)C1 measured_value=0.71
structure_as_smiles=CN1CCN(Cc2ccc(-c3cc4c(-c5cccc(N6CCOc7cc(C8CC8)ccc7C6=O)c5CO)ncnc4[nH]3)cc2)CC1 measured_value=0.81

Could you now consider this next compound?
Prompt: Consider the compound CN1CCN(Cc2ccc(-c3cc4c(-c5cccc(N6CCOc7cc(C8CC8)ccc7C6=O)c5CO)ccnc4[nH]3)nc2)CC1 and give its measured log10(IC50).
Response: 0.73

====

METHOD: Equilibrium aqueous solubility of the compound at pH 4
Type: physicochemical
This listing pairs compounds with measured solubility thermodynamic.

The following compounds have reported results that may help.
structure_as_smiles=O=C1c2c(F)cc(C3CC3)cc2OCCN1c1cccc(-c2ccnc3[nH]c(C4=CCN(C5COC5)CC4)cc23)c1CO measured_property="solubility thermodynamic" measured_value="> 2000 µM"
structure_as_smiles=CC(C)(O)CN1CC=C(c2cc3c(-c4cccc(N5CCOc6cc(C7CC7)cc(F)c6C5=O)c4CO)ccnc3[nH]2)CC1 measured_property="solubility thermodynamic" measured_value="< 100 µM"
structure_as_smiles=CCN1CCN(Cc2ccc(-c3cc4c(-c5cccc(N6CCOc7cc(C8CC8)cc(F)c7C6=O)c5CO)ccnc4[nH]3)nc2)CC1 measured_property="solubility thermodynamic" measured_value="> 2000 µM"

Prompt: Return reported solubility thermodynamic; argument: O=C1c2c(F)cc(C3CC3)cc2OCCN1c1cccc(-c2ccnc3[nH]c(-c4cnn(C5CCN(C6COC6)CC5)c4)cc23)c1CO
Response: < 100 µM

====

Measured half-life accompanies every entry in the list below.
METHOD: Half life in mouse at 3 mg/kg, iv
Assay type: ADME, organism-based
CONDITION SUMMARY: in vivo
Write the value in h as a bare number.

structure_as_smiles=CCN1CCN(Cc2ccc(-c3cc4c(-c5cccc(N6CCOc7cc(C8CC8)cc(F)c7C6=O)c5CO)ccnc4[nH]3)nc2)CC1 measured_property=half-life unit_abbrev=h measured_value=5.6

Now for the compound whose half-life we want.
Prompt: # query: half-life of entry O=C1c2c(F)cc(C3CC3)cc2OCCN1c1cccc(-c2ccnc3[nH]c(C4=CCN(C5COC5)CC4)cc23)c1CO
Response: 1.1

====

ASSAY SYSTEM: Tyrosine-protein kinase BTK (Mus musculus)
METHOD: Inhibition of C57BL/6J mouse BTK assessed as decrease in anti-mouse IgM antibody stimulated BCR mediated CD69 upregulation preincubated for 30 mins followed by antibody challenge after 18 to 24 hrs by flow cytometry
Listing of recorded IC50 by entry.
Unit nM implied. Number only.

structure_as_smiles=CCN1CCN(Cc2ccc(-c3cc4c(-c5cccc(N6CCOc7cc(C8CC8)cc(F)c7C6=O)c5CO)ccnc4[nH]3)nc2)CC1 measured_value=8.4
structure_as_smiles=CS(=O)(=O)N1CC=C(c2cc3c(-c4cccc(N5CCOc6cc(C7CC7)cc(F)c6C5=O)c4CO)ccnc3[nH]2)CC1 measured_value=17.7
structure_as_smiles=O=C1c2ccc(C3CC3)cc2OCCN1c1cccc(-c2ncnc3[nH]c(-c4ccc(CN5CCOCC5)cc4)cc23)c1CO measured_value=59
structure_as_smiles=O=C1c2c(F)cc(C3CC3)cc2OCCN1c1cccc(-c2ccnc3[nH]c(C4=CCN(C5COC5)CC4)cc23)c1CO measured_value=41.9
structure_as_smiles=O=C1c2c(F)cc(C3CC3)cc2OCCN1c1cccc(-c2ccnc3[nH]c(-c4cnn(C5CCN(C6COC6)CC5)c4)cc23)c1CO measured_value=8.3

Now, please, on to the next molecule.
Prompt: State the recorded IC50 for this entry: CN1CCC(Oc2ccc(-c3cc4c(-c5cccc(N6CCOc7cc(C8CC8)ccc7C6=O)c5CO)ncnc4[nH]3)cc2)CC1
Response: 51

====

ASSAY SYSTEM: Tyrosine-protein kinase ITK/TSK (Homo sapiens, UniProt Q08881)
Sequence (Q08881 whole entry): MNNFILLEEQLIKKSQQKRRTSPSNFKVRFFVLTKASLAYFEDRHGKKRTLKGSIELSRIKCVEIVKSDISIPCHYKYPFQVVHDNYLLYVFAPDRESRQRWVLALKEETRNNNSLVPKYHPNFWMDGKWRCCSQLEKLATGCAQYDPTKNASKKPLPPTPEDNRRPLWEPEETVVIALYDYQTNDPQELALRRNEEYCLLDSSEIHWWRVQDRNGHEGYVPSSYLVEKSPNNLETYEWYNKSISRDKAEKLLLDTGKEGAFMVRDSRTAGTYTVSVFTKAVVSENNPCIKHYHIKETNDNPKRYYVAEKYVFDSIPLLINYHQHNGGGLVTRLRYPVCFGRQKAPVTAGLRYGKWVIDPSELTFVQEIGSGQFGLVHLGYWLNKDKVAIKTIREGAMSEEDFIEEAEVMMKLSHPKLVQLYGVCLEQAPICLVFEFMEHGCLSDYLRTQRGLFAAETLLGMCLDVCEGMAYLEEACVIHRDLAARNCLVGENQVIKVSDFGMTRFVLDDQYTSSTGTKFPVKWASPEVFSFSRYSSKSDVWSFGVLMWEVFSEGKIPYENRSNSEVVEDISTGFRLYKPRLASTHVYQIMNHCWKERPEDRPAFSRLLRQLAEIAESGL
METHOD: Inhibition of recombinant human full length ITK preincubated for 10 mins followed by Tk-biotin peptide substrate addition after 60 mins by TR-FRET assay
pIC50: −log10 of the molar value.
MEASURED PROPERTY: pIC50

structure_as_smiles=CCN1CCN(Cc2ccc(-c3cc4c(-c5cccc(N6CCOc7cc(C8CC8)cc(F)c7C6=O)c5CO)ccnc4[nH]3)nc2)CC1 measured_property=pIC50 measured_value="< 5.00"

Shift focus to the following entry.
Prompt: Item under review: O=C1c2c(F)cc(C3CC3)cc2OCCN1c1cccc(-c2ccnc3[nH]c(C4=CCN(C5COC5)CC4)cc23)c1CO . Reported pIC50?
Response: < 5.00

====

METHOD: Oral bioavailability in mouse at 10 mg/kg
Format: ADME, organism-based
CONDITION SUMMARY: in vivo
Below, each entry is listed with its recorded bioavailability.
Could you give me the number in %? Just the number is fine.

structure_as_smiles=O=C1c2c(F)cc(C3CC3)cc2OCCN1c1cccc(-c2ccnc3[nH]c(C4=CCN(C5COC5)CC4)cc23)c1CO measured_property=bioavailability unit_abbrev=% measured_value=49

Below: the item to evaluate.
Prompt: Fill in: bioavailability of CCN1CCN(Cc2ccc(-c3cc4c(-c5cccc(N6CCOc7cc(C8CC8)cc(F)c7C6=O)c5CO)ccnc4[nH]3)nc2)CC1 is ___
Response: 51

====

# key: entry, value: IC50
ASSAY SYSTEM: Tyrosine-protein kinase BTK (Mus musculus, UniProt P35991)
METHOD: Inhibition of mouse BTK assessed as decrease in anti-mouse IgD antibody stimulated BCR mediated CD69 upregulation in whole blood preincubated for 1 hr followed by antibody challenge after 4 hrs by flow cytometry
Returns: string containing the numeric result and its unit.

structure_as_smiles=CCN1CCN(Cc2ccc(-c3cc4c(-c5cccc(N6CCOc7cc(C8CC8)cc(F)c7C6=O)c5CO)ccnc4[nH]3)nc2)CC1 measured_property=IC50 measured_value="159 nM"

Below: the item to evaluate.
Prompt: Record request: IC50 value, item O=C1c2c(F)cc(C3CC3)cc2OCCN1c1cccc(-c2ccnc3[nH]c(C4=CCN(C5COC5)CC4)cc23)c1CO
Response: 364 nM
